B1: TCEB3B (parent)
chain: STTALGDKQRKANESKGTRESWDS

variants of: B1; test: protein stability index of a GFP-peptide fusion (GPS, HEK-293T) (PSI 1-6); higher = more stable; details: c terminus: a fixed tail appended;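 note: lentivirally expressed fusions sorted by FACS into six bins by GFP to DsRed ratio, PSI derived from sequencing read proportions per bin multiplied by bin number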
protein stability index vs 4: at or above is Condition met, below is Condition not met.

N13L    Condition not met
W22G    Condition met
S1F    Condition not met
K11N    Condition met
N13Y    Condition not met

input: Identify whether the reported protein stability index of the following variant is 4 or greater: "G6V"
output: Condition not met

input: Next: "R19D"
output: Condition met

input: Next: "N13V"
output: Condition met

input: Next: "A4C"
output: Condition not met

input: Next: "T3I"
output: Condition not met
